- TESTED_SYSTEM: rat MCH-1 (Rattus norvegicus, UniProt P97639)
- Sequence (P97639 whole entry): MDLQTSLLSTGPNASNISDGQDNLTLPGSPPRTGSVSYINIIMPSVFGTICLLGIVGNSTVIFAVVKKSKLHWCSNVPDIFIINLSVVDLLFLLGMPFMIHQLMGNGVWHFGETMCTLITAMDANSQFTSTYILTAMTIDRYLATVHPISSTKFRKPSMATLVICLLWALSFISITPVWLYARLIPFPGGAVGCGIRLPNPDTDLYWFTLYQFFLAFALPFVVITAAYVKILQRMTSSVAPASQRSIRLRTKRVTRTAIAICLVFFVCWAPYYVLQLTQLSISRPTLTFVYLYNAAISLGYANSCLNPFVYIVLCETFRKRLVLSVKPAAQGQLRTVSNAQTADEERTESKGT
- PROTOCOL_DESCRIPTION: Radioligand binding assay at cloned rat MCH1 receptor ([3H] Compound A)
- Parameters: host or cells: Peak rapid 293 (Peakr293) cells, transient calcium phosphate transfection, membranes
- SETTINGS: cloned rat MCH1 receptor; 0.08 nM [3H] Compound A; Peakr293 cell membranes; read-out: Ki (nM) rMCH1
Hi there, I'd appreciate the recorded log10 of Ki for every entry that follows.
Values are log10 of Ki in nM.

For CC(=O)c1cccc(OC(CCCCCN2CCC(c3cccc(NC(=O)C(C)C)c3)CC2)c2ccccc2F)c1 (stereo not drawn) the compound record lists log10 of Ki as 1.30

For COc1ccc2[nH]c(-c3ccc(Br)cc3)c(CCCN3CCC(c4cccc(NC(=O)C(C)C)c4)CC3)c2c1 the compound record lists log10 of Ki as 1.20

For CC(C)C(=O)Nc1cccc(C2CCN(CCCc3c(-c4ccccc4I)n(-c4ccccc4)c4ccccc34)CC2)c1 the compound record lists log10 of Ki as 2.09

For CC(C)C(=O)Nc1cccc(C2CCN(Cc3cccc4c3ccn4-c3cccc(C(F)(F)F)c3)CC2)c1 the compound record lists log10 of Ki as 1.97

For CC(C)C(=O)Nc1cccc(C2CCN(Cc3c[nH]c4ccc(Br)cc34)CC2)c1 the compound record lists log10 of Ki as 2.61

For CCC(=O)Nc1cccc(C2CCN(CCCCC(=O)c3cccc([N+](=O)[O-])c3)CC2)c1 the compound record lists log10 of Ki as 1.39
